Assay: Partition coefficient (logP)
Type: physicochemical
Settings: octanol/water
measured.parameter: logP
One number for each entry.

Worked set:
molecule: COP(=S)(OC)Oc1cc(C)c([N+](=O)[O-])c(C)c1
logP: 3.89
//
molecule: COP(=O)(OC)Oc1ccc([N+](=O)[O-])c(C(C)C)c1
logP: 2.57

Would you be so kind as to report logP for each listed record?
1. CCc1cc(OP(=S)(OC)OC)ccc1[N+](=O)[O-]
2. CCOP(=S)(OCC)Oc1ccc(SC)c(Cl)c1
3. CCOP(=S)(OCC)Oc1ccccc1
4. COP(=O)(OC)Oc1ccc([N+](=O)[O-])cc1Cl
5. CCc1cc(OP(=O)(OC)OC)ccc1[N+](=O)[O-]
6. CCOP(=O)(OCC)Oc1ccc(SC)c(Cl)c1

## Output
1: 3.84; 2: 5.06; 3: 3.46; 4: 1.83; 5: 2.19; 6: 3.21

Would you be so kind as to report logP for each listed record?
1. COP(=O)(OC)Oc1ccc([N+](=O)[O-])c(C)c1 [FENITROXON]
2. COP(=O)(OC)Oc1ccc([N+](=O)[O-])cc1 [DIMETHYL 4-NITROPHENYL PHOSPHATE]

## Output
1. 1.69
2. 1.27
